Exercise: for every item that follows, state its recorded Plant response rating, Ragweed, Common.
tested on: common ragweed (Ambrosia elatior); assay: Test C preemergence; assay type: in vivo; conditions: Preemergence; Rate 500 g/ha; scale 0 to 100
One number for each entry.

For every item in the list below, what is its measured Plant response rating, Ragweed, Common?
1. O=C1C(n2ccc(C3CCC3)n2)SCN1c1cccc(OC(F)F)c1 (centres unmarked)
2. CC(C)(C)c1ccn(C2CCN(c3ccc(Cl)c(Br)c3)C2=O)n1 (centres unmarked)
3. CC(C)c1ccn(C2SCN(c3cccc(OC(F)(F)F)c3)C2=O)n1 (centres unmarked)
4. CC(C)(C)c1ccn(C2CCN(c3cccc(OC(F)(F)F)c3)C2=O)n1 (centres unmarked)

## Result
60
20
100
90

## Task Please report the recorded Plant response rating, Ragweed, Common for CC(C)(C)c1ccn(C2SCN(c3cccc(OC(F)(F)F)c3)C2=O)n1 (centres unmarked) .
## Result 100

###

system: soybean (Glycine max); test: Test C postemergence; format: in vivo; conditions: Rate 125 g/ha, scale 0 to 100, 0 no effect, 100 complete control
quantity: Plant response rating, Soybean
Numbers only.

| compound | result.number |
| --- | --- |
| CCC(C)c1ccn(C2SCN(c3cccc(C(F)(F)F)c3)C2=O)n1 (stereo not shown) [Compound 20] | 20 |
| CCC(CC)c1ccn(C2SCN(c3cccc(C(F)(F)F)c3)C2=O)n1 (stereo not shown) [Compound 21] | 30 |

For every item in the list below, what is its measured Plant response rating, Soybean?
1. O=C1C(n2ccc(C3CCC3)n2)SCN1c1cccc(OC(F)(F)F)c1 (stereo not shown) [Compound 38]
2. CCCC(C)c1ccn(C2OCN(c3cccc(OC(F)(F)F)c3)C2=O)n1 (stereo not shown) [Compound 91]

## Result
1: 0; 2: 0

###

Exercise: for every item that follows, state its recorded Rice plant response rating.
test system: rice (Oryza saliva); test: Test C flooded paddy test; format: in vivo; conditions: Flooded Paddy; Rate 250 g/ha; scale 0 to 100, 0 no effect, 100 complete control
One number for each entry.

Recorded Rice plant response rating, per entry:
| compound | result.number |
| --- | --- |
| CC(C)OC(=O)c1cccc(N2CCC(n3ccc(C(C)(C)C)n3)C2=O)c1 (stereo not shown) | 0 |
| Cc1ccn(C2SCN(c3cccc(C(F)(F)F)c3)C2=O)n1 (stereo not shown) | 0 |
| Cc1c(F)cc(N2CCC(n3ccc(C(C)(C)C)n3)C2=O)cc1Br (stereo not shown) | 0 |
| CC(C)(C)c1ccn(C2CCN(c3cccc(OC(F)(F)C(F)F)c3)C2=O)n1 (stereo not shown) | 20 |
| Cc1c(Cl)cc(N2CCC(n3ccc(C(C)(C)C)n3)C2=O)cc1Cl (stereo not shown) | 0 |
| CC(C)c1ccn(C2SCN(c3cccc(OC(F)F)c3)C2=O)n1 (stereo not shown) | 90 |
| CCCOC(=O)c1cccc(N2CCC(n3ccc(C(C)(C)C)n3)C2=O)c1 (stereo not shown) | 0 |
| CC(C)c1ccn(C2SCN(c3cccc(C(F)(F)F)c3)C2=O)n1 (stereo not shown) | 70 |

For every item in the list below, what is its measured Rice plant response rating?
1. CC(C)(C)c1ccn(C2CCN(c3cccc(C(F)(F)F)c3)C2=S)n1 (stereo not shown)
2. Cc1cc(N2CCC(n3ccc(C(C)(C)C)n3)C2=O)cc(Br)c1C (stereo not shown)
3. CCCC(C)c1ccn(C2SCN(c3cccc(C(F)(F)F)c3)C2=O)n1 (stereo not shown)
4. O=C1C(n2ccc(C3CCC3)n2)OCN1c1cccc(C(F)(F)F)c1 (stereo not shown)
5. CC1CCc2cn(C3CCN(c4cccc(C(F)(F)F)c4)C3=O)nc21 (stereo not shown)

## Result
1. 20
2. 0
3. 30
4. 0
5. 20
